MEASUREMENT_PARAMETERS: 308.15 K; 39620 kPa; Liquid; Vibrating tube method
EXPERIMENTAL_ENDPOINT: mass density (kg/m3)

In [3]: df
Out[3]:
                       compound  assay_value
0  Cc1ccncc1 [4-methylpyridine]          965
1           c1ccncc1 [pyridine]        993.2
2  Cc1ccccn1 [2-methylpyridine]        956.1
3  Cc1cccnc1 [3-methylpyridine]        967.1

====

MEASUREMENT_PARAMETERS: 318.15 K; 12260 kPa; Liquid; Vibrating tube method
mass density: recorded values
EXPERIMENTAL_ENDPOINT: mass density (kg/m3)

>>> df
                       compound  assay_value
0           c1ccncc1 [pyridine]        966.7
1  Cc1cccnc1 [3-methylpyridine]        942.3
2  Cc1ccncc1 [4-methylpyridine]        940.2
3  Cc1ccccn1 [2-methylpyridine]        930.2

====

MEASUREMENT_PARAMETERS: 328.15 K; 14290 kPa; Liquid; Vibrating tube method
mass density: recorded values
EXPERIMENTAL_ENDPOINT: mass density (kg/m3)

   smiles_record  assay_value
0       c1ccncc1        958.4
1      Cc1cccnc1          935
2      Cc1ccccn1        922.8
3      Cc1ccncc1          933

====

MEASUREMENT_PARAMETERS: 298.15 K; 2130 kPa; Liquid; Vibrating tube method
mass density: recorded values
EXPERIMENTAL_ENDPOINT: mass density (kg/m3)

   smiles_record  assay_value
0       c1ccncc1          979
1      Cc1cccnc1        953.2
2      Cc1ccncc1        951.2
3      Cc1ccccn1        941.2

====

MEASUREMENT_PARAMETERS: 328.15 K; 4150 kPa; Liquid; Vibrating tube method
mass density: recorded values
EXPERIMENTAL_ENDPOINT: mass density (kg/m3)

>>> print(df.to_string())
                       compound  assay_value
0  Cc1ccccn1 [2-methylpyridine]        915.1
1  Cc1cccnc1 [3-methylpyridine]        927.8
2           c1ccncc1 [pyridine]        950.7
3  Cc1ccncc1 [4-methylpyridine]        925.8

====

MEASUREMENT_PARAMETERS: 298.15 K; 6180 kPa; Liquid; Vibrating tube method
EXPERIMENTAL_ENDPOINT: mass density (kg/m3)

In [3]: df
Out[3]:
                       compound  value_units  assay_value
0  Cc1ccncc1 [4-methylpyridine]        kg/m3        953.8
1  Cc1cccnc1 [3-methylpyridine]        kg/m3        955.8
2  Cc1ccccn1 [2-methylpyridine]        kg/m3        943.9
3           c1ccncc1 [pyridine]        kg/m3        981.8

====

mass density: recorded values
MEASUREMENT_PARAMETERS: 308.15 K; 8210 kPa; Liquid; Vibrating tube method
EXPERIMENTAL_ENDPOINT: mass density (kg/m3)

In [3]: df
Out[3]:
   smiles_record  assay_value
0       c1ccncc1        973.5
1      Cc1ccncc1        946.4
2      Cc1cccnc1        948.4
3      Cc1ccccn1        936.4

====

MEASUREMENT_PARAMETERS: 298.15 K; 14290 kPa; Liquid; Vibrating tube method
mass density: recorded values
EXPERIMENTAL_ENDPOINT: mass density (kg/m3)

>>> print(df.to_string())
   smiles_record  value_units  assay_value
0      Cc1ccncc1        kg/m3        958.8
1      Cc1cccnc1        kg/m3        960.8
2       c1ccncc1        kg/m3        987.1
3      Cc1ccccn1        kg/m3        949.2

====

MEASUREMENT_PARAMETERS: 318.15 K; 26450 kPa; Liquid; Vibrating tube method
Numbers after ± are expanded uncertainties.
EXPERIMENTAL_ENDPOINT: mass density

>>> print(df.to_string())
                       compound        assay_value
0  Cc1cccnc1 [3-methylpyridine]  951.3 ± 0.3 kg/m3
1  Cc1ccccn1 [2-methylpyridine]  939.8 ± 0.8 kg/m3
2           c1ccncc1 [pyridine]  976.2 ± 0.2 kg/m3
3  Cc1ccncc1 [4-methylpyridine]  949.2 ± 0.3 kg/m3

====

MEASUREMENT_PARAMETERS: 328.15 K; 38600 kPa; Liquid; Vibrating tube method
EXPERIMENTAL_ENDPOINT: mass density (kg/m3)

In [3]: df
Out[3]:
                       molecule  experimental_endpoint  value_units  assay_value
0  Cc1ccncc1 [4-methylpyridine]           mass density        kg/m3        948.5
1  Cc1ccccn1 [2-methylpyridine]           mass density        kg/m3        939.3
2           c1ccncc1 [pyridine]           mass density        kg/m3          975
3  Cc1cccnc1 [3-methylpyridine]           mass density        kg/m3        950.6

====

mass density: recorded values
MEASUREMENT_PARAMETERS: 308.15 K; 11250 kPa; Liquid; Vibrating tube method
EXPERIMENTAL_ENDPOINT: mass density (kg/m3)

>>> df
   smiles_record  assay_value
0      Cc1cccnc1        950.4
1      Cc1ccccn1        938.5
2      Cc1ccncc1        948.3
3       c1ccncc1        975.6

====

MEASUREMENT_PARAMETERS: 328.15 K; 11250 kPa; Liquid; Vibrating tube method
EXPERIMENTAL_ENDPOINT: mass density (kg/m3)

                       molecule  assay_value
0  Cc1ccccn1 [2-methylpyridine]        920.5
1           c1ccncc1 [pyridine]        956.2
2  Cc1ccncc1 [4-methylpyridine]        930.9
3  Cc1cccnc1 [3-methylpyridine]        932.9

====

mass density: recorded values
MEASUREMENT_PARAMETERS: 308.15 K; 10230 kPa; Liquid; Vibrating tube method
EXPERIMENTAL_ENDPOINT: mass density (kg/m3)

                       compound  value_units  assay_value
0  Cc1cccnc1 [3-methylpyridine]        kg/m3        949.7
1           c1ccncc1 [pyridine]        kg/m3        974.9
2  Cc1ccncc1 [4-methylpyridine]        kg/m3        947.7
3  Cc1ccccn1 [2-methylpyridine]        kg/m3        937.8

====

mass density: recorded values
MEASUREMENT_PARAMETERS: 318.15 K; 11250 kPa; Liquid; Vibrating tube method
Numbers after ± are expanded uncertainties.
EXPERIMENTAL_ENDPOINT: mass density

                       compound  experimental_endpoint        assay_value
0           c1ccncc1 [pyridine]           mass density    966 ± 0.2 kg/m3
1  Cc1cccnc1 [3-methylpyridine]           mass density  941.6 ± 0.3 kg/m3
2  Cc1ccncc1 [4-methylpyridine]           mass density  939.5 ± 0.3 kg/m3
3  Cc1ccccn1 [2-methylpyridine]           mass density  929.5 ± 0.8 kg/m3

====

mass density: recorded values
MEASUREMENT_PARAMETERS: 298.15 K; 34550 kPa; Liquid; Vibrating tube method
EXPERIMENTAL_ENDPOINT: mass density (kg/m3)

>>> print(df.to_string())
   smiles_record  experimental_endpoint  assay_value
0      Cc1ccncc1           mass density        970.2
1      Cc1cccnc1           mass density        972.3
2       c1ccncc1           mass density        999.1
3      Cc1ccccn1           mass density        961.2

====

MEASUREMENT_PARAMETERS: 318.15 K; 4150 kPa; Liquid; Vibrating tube method
EXPERIMENTAL_ENDPOINT: mass density (kg/m3)

>>> print(df.to_string())
   smiles_record  experimental_endpoint  assay_value
0       c1ccncc1           mass density        960.8
1      Cc1ccccn1           mass density        924.3
2      Cc1cccnc1           mass density        936.7
3      Cc1ccncc1           mass density        934.7
